Test system: UACC-257 melanoma
Test: NCI tumour cell line growth inhibition, 48 h
Where a SMILES comes first, the peptide text is derived from it. The star is where a group is joined. Pentanoyl = CCCCC(=O)*; Boc = CC(C)(C)OC(=O)*
quantity: TGI

Entry under review: `O=C1Nc2ccccc2S/C1=C\c1cccc(C(F)(F)F)c1` . Reported TGI?
> 100 µM

Entry `CC1(C)CC(=O)C2=C(C1)S/C(=C1/SC3=C(S1)C(=O)CC(C)(C)C3)S2` has what TGI?
> 251 µM

Bench note: what TGI did `N#Cc1ccc(N2Cc3ccccc3OC3=C2C(=O)c2c(O)ccc(O)c2C3=O)cc1` show?
0.818 µM

Which TGI is reported for this compound? `O=P(NC12CC3CC(CC(C3)C1)C2)(N1CC1)N1CC1`
> 100 µM

Need TGI of C=CC(C=O)C1(O)CCOC(=O)/C1=C\N (stereo not drawn) , thanks.
> 100 µM

// returns reported TGI for input `O=C(NNc1ccnc2cc(Cl)ccc12)/C(=C\c1ccccc1Cl)NC(=O)c1ccccc1`
> 100 µM

TGI for `O=C(CCCN1CCOCC1)Nc1ccc(Cn2nnc3c2C(=O)c2nnn(Cc4ccc(NC(=O)CCCN5CCOCC5)cc4)c2C3=O)cc1` ?
3.23 µM

Report TGI for O=C(CC(C(=O)c1ccco1)c1cccs1)c1cccs1 (stereo not drawn) please.
> 100 µM

# get_value(readout='TGI', item= CCOC(=O)C1=C(C)NC2SC(=O)/C(=C\c3ccccc3O)N2C1c1ccccc1 (stereo not drawn) )
> 100 µM

Which value of TGI has been reported for `COc1ccc(/C=C2\N=C3Sc4c(nc[nH]c4=O)N3C2=O)cc1` in the records?
> 100 µM

// query TGI value for entry CC1(C)OC(C[C@]2(C#N)C[C@H](CCl)OC(C)(C)O2)C[C@@H](C[C@]2(C#N)C[C@H](CCl)OC(C)(C)O2)O1 (stereo partly drawn)
> 100 µM

Returns the measured TGI for the input compound. Input: `O=P1(c2ccccc2)c2ccccc2CCc2ccccc21`
> 100 µM

For NNC(=S)N/N=C(/C(=O)Nc1cc(Cl)ccc1Cl)C1C(=O)Nc2ccccc2S1=O (stereo not drawn) , what is its reported TGI?
> 100 µM

Would you mind telling me what TGI value was observed for `Oc1c(CN2CCCC2)cc(COCc2ccc(Br)cc2)c2cccnc12` ?
3.02 µM

Looking for the measured TGI of `COc1cc(-c2cc(=O)c3c(O)c(OC)c(OC)c(OC)c3o2)ccc1O` , can you help?
> 100 µM

What value of measured TGI is listed for O=C(O)NCc1ccccc1 (tested in a mixture with another compound) ?
> 95.9 µM

Using the record for `CC/C(=C(/CC)c1ccc([O-])cc1)c1ccc([O-])cc1.CC/C(=C(\CC)c1ccc([O-])cc1)c1ccc([O-])cc1.O=C([CH-]C(=O)c1ccccc1)c1ccccc1.O=C([CH-]C(=O)c1ccccc1)c1ccccc1.O=C([CH-]C(=O)c1ccccc1)c1ccccc1.O=C([CH-]C(=O)c1ccccc1)c1ccccc1.[Ti+4].[Ti+4]` , report its TGI.
> 100 µM

What does the data say about its TGI? Entry: `COc1ccc2c(c1)c1c(n2CCN(C)C)-c2cccc(OC)c2CC1`
37.7 µM

Please report the recorded TGI for CCCCC(=O)Oc1ccc(CC(NC(=O)OC(C)(C)C)C(=O)NC(C)C(=O)NC(Cc2ccccc2)C(=O)NCC(N)=O)cc1 (stereo not drawn) (Boc-Y(Pentanoyl)AFG-NH2; configuration not given here) .
71.4 µM

Item under review: O=C1C2=Nc3ccccc3C(O)N2c2ccccc21 (stereo not drawn) . Reported TGI?
16.5 µM

Any idea what its TGI is? The compound is `CC(C)(C)c1[nH]cnc1/C=c1\[nH]c(=O)/c(=C/c2ccccc2)[nH]c1=O`
22.6 µM

State the recorded TGI for this entry: `CO/N=C(/C(=O)N(C(=O)/C(=N/OC)c1csc(NC(c2ccccc2)(c2ccccc2)c2ccccc2)n1)n1cnn(CC(=O)OC(C)(C)C)c1=O)c1csc(NC(c2ccccc2)(c2ccccc2)c2ccccc2)n1`
> 10 µM

# lookup: TGI of `Cc1ccc(/C(=C\C(=O)C(=O)NC23CC4CC(CC(C4)C2)C3)Sc2ccccc2)cc1`
> 10 µM

What does the data say about its TGI? Entry: C/C1=C/C2=CC(C)C[C@@H]2C(=O)[C@]2(C)C(=O)CC(C)(C)[C@H]2CC1=O (stereo partly drawn)
> 50 µM

Any idea what TGI was measured for `CCOC(=O)/C=C/c1cc2cc(-c3csc4ccccc34)ccc2[nH]1` ?
25.2 µM

Give the measured TGI of `N/C(=N\N=C\c1c[nH]c2cc(C(F)(F)F)ccc2c1=O)NO` .
> 10 µM

Reported TGI, compound C=C(C)C1CC2(C)C(C)CC(OC(=O)/C(C)=C\C)CC2C(OC(=O)/C(C)=C\C)C1O (stereo not drawn) : ____
> 100 µM

Fill blank: measured TGI of the compound O1C2C1C1OC1C1OC1C1OC21 (stereo not drawn) is ____.
> 100 µM

# query: TGI of entry `Cc1cnc(/C=N\NC(N)=S)c2cccc(N)c12`
> 38.8 µM

Field request: TGI | item: CCOC(=O)C(NCc1ccc2c(c1)OCO2)(NC(=O)c1ccccc1)C(F)(F)F (stereo not drawn)
> 100 µM

Dear colleague, I am looking for the recorded TGI of the following compound: c1ccc(C2SCc3nc4cc5ccccc5cc4n32)cc1 (stereo not drawn)
> 100 µM

Give the measured TGI of `Cn1nnnc1N/N=C/c1ccccc1` .
> 10 µM

// lookup TGI for `CCCc1c[nH]c(-c2ccc(-c3cc(CCC)c(C=O)[nH]3)s2)c1`
31.2 µM

Record request: TGI value, item `Cc1ccc(Nc2n[nH]c(=S)s2)cc1`
> 100 µM

Given `O=C(O)CCC(=O)c1ccc2ccc3cccc4ccc1c2c34` , state its recorded TGI.
> 100 µM

What does the record list as TGI for `CCOC(=O)[C@H]1Nc2c(cccc2[N+](=O)[O-])[C@H]2OCC[C@@H]12` ?
86.1 µM

TGI lookup needed for `Nc1c(-c2nc3ccccc3o2)sc(=S)n1-c1ccc(Cl)cc1` , thanks.
95.6 µM

For the compound `COc1cnc2c(c1)C(=O)c1c-2n(CCCN2CCC(O)CC2)c(=O)c2cc(F)ccc12` , what TGI is on record?
1.81 µM

* * *

Test system: UO-31 renal
Assay: NCI tumour cell line growth inhibition, 48 h; in the data active = GI50 below about 0.43 µM; inactive = the rest
Permitted responses: Yes (active), No (inactive)

GET /call?item= CNC(=O)c1ccc2cc(C3(O)CCn4cncc43)ccc2c1 (configuration not stated) returns the recorded outcome of this test.
No

Record request — test call for `O=c1cc(N2CCNCC2)oc2c(-c3ccccc3)cccc12`
No

Field: outcome | Entry: `COc1ccc2nc3cc(Cl)ccc3c(N3CCN(c4ccnc(N5CCOCC5)n4)CC3)c2c1`
No

What did the test return for `Cn1cc(C2=C(c3cccnc3)C(=O)NC2=O)c2ccccc21` ?
No

Each compound tested received a call. Report the one for `C/C(=N\N=C(\[Se])N1CCN(c2ccccn2)CC1)c1ccccn1` .
Yes

Call for entry `COc1ccc(-c2nn(-c3cccc(NC(=O)c4ccc5c(c4)OCCO5)c3)cc2-c2ccncc2)cc1Cl` :
No

Test call, this compound: `O=C(Nc1ccc(Oc2ccc3nc(NC(=O)c4ccccc4)[nH]c3c2)cc1)Nc1cc(C(F)(F)F)ccc1F`
No

* * *

For each entry below, report its TGI value.
Test system: TK-10 renal
Test: NCI tumour cell line growth inhibition, 48 h

I'm curious: which TGI was measured for `CCOC(=O)c1cc2c(nc1N)-c1ncccc1CC2` tested on TK-10 renal?
> 100 µM

Lab note: need TGI with TK-10 renal for entry C/C1=C/C2=CC(C)C[C@@H]2C(=O)[C@]2(C)C(=O)CC(C)(C)[C@H]2CC1=O (stereo not given in full) , please look it up.
> 50 µM

// map `O=C1CCCC/C1=C1\C(=O)Nc2cc(F)ccc21` to recorded TGI (system: TK-10 renal)
> 100 µM

GET /values?readout=TGI&system=TK-10 renal&item= `O=C(c1ccc2ccccc2c1)N(Cc1cccnc1)C(=S)N(Cc1cccnc1)C(=O)c1ccc2ccccc2c1`
78.9 µM

Lookup: TGI / TK-10 renal / `O=C(c1cc2ccccc2o1)N(Cc1ccccc1)c1ccccc1`
> 100 µM

* * *

System: SK-MEL-5 melanoma
Assay: NCI tumour cell line growth inhibition, 48 h
For each record, write down the corresponding GI50.

Field request: GI50 | item: `Cc1cnc(/C=N\NC(N)=S)c2cccc(N)c12`
1250 nM

Can you look up the measured GI50 of CNC(=O)c1ccc2cc(C3(O)CCn4cncc43)ccc2c1 (stereo unspecified) for me?
> 100000 nM

Please look up its GI50: `C/C(=C\C1=C(Cl)C(=O)c2ccccc2C1=O)C(=O)O`
17500 nM

GET /values?readout=GI50&item= `CN1CCN(Cc2ccc(NC(=O)c3cncc(C#Cc4cncc5ncccc45)c3)cc2C(F)(F)F)CC1`
2950 nM

Looking for the measured GI50 of `COc1ccc2c(c1)C(=O)C(=O)c1cc(O)c(OC)c(OC)c1-2` , can you help?
1680 nM

Which GI50 value is on record for `COc1cccc2c1-c1c(c3ccc([N+](=O)[O-])cc3c(=O)n1CCCCl)C2=O` ?
791 nM
